pIC50 values for the compounds below.
- Test system: A549
- experiment-description: Antiproliferative activity against human A549 cells assessed as inhibition of cell proliferation incubated for 48 hrs by CCK8 assay
- Type: functional, cell-based
- condition: A549, 48 h
The meaning of pIC50 here: minus log10 of the concentration in molar units.

Study these solved cases before continuing.
For record CC(C)(C)c1ccc(/C=C/C(=O)c2ccc(OCc3cn([C@H]4CC(=O)N5C[C@@H]6CCCN7CCC[C@@H]([C@H]67)[C@H]5C4)nn3)cc2O)cc1 the listed pIC50 is 4.44

For record O=C(/C=C/c1ccc(F)cc1)c1ccc(OCc2cn([C@H]3CC(=O)N4C[C@@H]5CCCN6CCC[C@@H]([C@H]56)[C@H]4C3)nn2)cc1 the listed pIC50 is 4.73

For record O=C(/C=C/c1ccc([N+](=O)[O-])cc1)c1ccc(OCc2cn([C@H]3CC(=O)N4C[C@@H]5CCCN6CCC[C@@H]([C@H]56)[C@H]4C3)nn2)cc1 the listed pIC50 is 4.84

For record O=c1[nH]cc(F)c(=O)[nH]1 the listed pIC50 is 4.39

Now for a further compound.
For record O=C(/C=C/c1cccc(C(F)(F)F)c1)c1ccc(OCc2cn([C@H]3CC(=O)N4C[C@@H]5CCCN6CCC[C@@H]([C@H]56)[C@H]4C3)nn2)cc1O the listed pIC50 is 5.09
